All figures here come from PubChem BioAssay.

assayText: ovarian cancer cell viability with rucaparib, profiling panel, oncology-focused library, rucaparib conditional (AID 1508598)
conditionDescription: patient-derived ovarian cancer cells, CellTiter-Glo viability, 144 h; at 0.00122 µM; OCI-C5x cells; with rucaparib 10 µM; active compounds read low; 100% = cells with rucaparib alone
Below, each of the compounds is paired with its reported viability value.
endpointName: viability (%)

compound: CC(C)C(=O)Nc1ccc([N+](=O)[O-])c(C(F)(F)F)c1
endpointName: viability
value: 114
//
compound: NC(=O)c1ccc(-c2nc(-c3ccc4c(c3)OCO4)c(-c3ccccn3)[nH]2)cc1
endpointName: viability
value: 135
//
compound: O=c1[nH]cc(F)c(=O)[nH]1
endpointName: viability
value: 121
//
compound: CC1=C(/C=C/C(C)=C/C=C/C(C)=C/C(=O)O)C(C)(C)CCC1
endpointName: viability
value: 106
//
compound: O=c1[nH]cnc2[nH]ncc12
endpointName: viability
value: 124
//
compound: Cc1ccc(-c2cc(C(F)(F)F)nn2-c2ccc(S(N)(=O)=O)cc2)cc1
endpointName: viability
value: 104
//
compound: O=C1CCC(N2C(=O)c3ccccc3C2=O)C(=O)N1 (centres undefined)
endpointName: viability
value: 108
//
compound: CCCCCCNC(=O)n1cc(F)c(=O)[nH]c1=O
endpointName: viability
value: 128
//
compound: CCN(CC)C(=S)SSC(=S)N(CC)CC
endpointName: viability
value: 122

====

systemName: Single-stranded DNA-binding protein (Escherichia coli (strain K12)) (UniProt P0AGE0)
assayText: E. coli SSB displacement from DNA, counter-screen for HCV NS3 helicase inhibitor project, biochemical, fluorescence polarization, NIH Clinical Collection (AID 743271)
conditionDescription: active compounds read high, concentration not given here
Activity calls are given as the source filed them. Cut-off read from the data, not from the text of the source: active = inhibition above about 28%; inactive = the rest.

compound: C#C[C@]1(O)CC[C@H]2[C@@H]3CCC4=CC(=O)CC[C@@H]4[C@H]3CC[C@@]21CC
inhibition: -0.1% (inactive)
--
compound: CC(COc1ccccc1)N(CCCl)Cc1ccccc1 (stereo not drawn)
inhibition: -0.48% (inactive)
--
compound: Cn1cnc([N+](=O)[O-])c1Sc1ncnc2nc[nH]c12
inhibition: -2.76% (inactive)
--
compound: CCCCc1oc2ccccc2c1C(=O)c1cc(I)c(OCCN(CC)CC)c(I)c1
inhibition: 1.97% (inactive)
--
compound: CN1CCCC(n2nc(Cc3ccc(Cl)cc3)c3ccccc3c2=O)CC1 (stereo not drawn)
inhibition: 0.67% (inactive)
--
compound: OCCN1CCN(CCCN2c3ccccc3Sc3ccc(Cl)cc32)CC1
inhibition: 1.81% (inactive)
--
compound: CC(=O)OCC(=O)[C@@]12OC(C)(C)O[C@@H]1C[C@H]1[C@@H]3C[C@H](F)C4=CC(=O)C=C[C@]4(C)[C@@]3(F)[C@@H](O)C[C@@]12C
inhibition: -1.24% (inactive)
--
compound: Cc1cn([C@H]2C[C@H](N=[N+]=[N-])[C@@H](CO)O2)c(=O)[nH]c1=O
inhibition: -2.76% (inactive)

====

assayText: glucagon-like peptide 1 release enhancers, primary assay, NCI-H716 cell line, NPC library (AID 1117341)
conditionDescription: NCI-H716 cells, at 10 µM, active compounds read high
Below, each of the compounds is paired with its reported GLP1 secretion stimulation value.

compound: CCOC(=O)[C@@H](N)CS
GLP1 secretion stimulation (%): 21
--
compound: OC1(c2ccc(Cl)cc2)CCNCC1
GLP1 secretion stimulation (%): 1.3
--
compound: N[C@@H]1CONC1=O
GLP1 secretion stimulation (%): -0.7
--
compound: OC(CCN1CCCC1)(c1ccccc1)C1CCCCC1 (configuration not stated)
GLP1 secretion stimulation (%): 3.4
--
compound: CCCCC(CC)CNC(=O)CC(C)OC(=O)CCC(=O)O (configuration not stated)
GLP1 secretion stimulation (%): -1
--
compound: COc1ccc2c(c1)c(CC(=O)OC/C=C(\C)CC/C=C(\C)CCC=C(C)C)c(C)n2C(=O)c1ccc(Cl)cc1
GLP1 secretion stimulation (%): -2.8
--
compound: O=S(O)CO
GLP1 secretion stimulation (%): -1.1
--
compound: CCS(=O)(=O)c1ccc(OC)c(C(=O)OC)c1
GLP1 secretion stimulation (%): 1
--
compound: COc1cc(/C=C/C(=O)O[C@H]2CC[C@]34C[C@]35CC[C@]3(C)[C@@H]([C@H](C)CCC=C(C)C)CC[C@@]3(C)[C@@H]5CC[C@H]4C2(C)C)ccc1O
GLP1 secretion stimulation (%): 0.5
--
compound: NCCCC[C@H](N)C(=O)O
GLP1 secretion stimulation (%): -3.9
--
compound: CCOC(=O)C(=O)c1csc(NC=O)n1
GLP1 secretion stimulation (%): -2
--
compound: CCN(CC)CCOC(=O)C1(c2ccccc2)CCCC1
GLP1 secretion stimulation (%): -2.7
--
compound: NCc1ccccc1Sc1ccccc1CO
GLP1 secretion stimulation (%): 3.3
--
compound: CCCCCCCCCCCCCCCC(=O)OCC(COC(=O)CCCCCCCCCCCCCCC)OC(=O)CCCCCCCCCCCCCCC
GLP1 secretion stimulation (%): -5.4
--
compound: CC(=O)Nc1ccn(C2COC(COC(=O)c3ccccc3)O2)c(=O)n1 (configuration not stated)
GLP1 secretion stimulation (%): 1.2
--
compound: NS(=O)(=O)c1ccc(N2CCCCS2(=O)=O)cc1
GLP1 secretion stimulation (%): -1.7
--
compound: CCCN(CCC)S(=O)(=O)c1ccc(C(=O)O)cc1
GLP1 secretion stimulation (%): -0.7
--
compound: CC(=O)CC(c1ccccc1)c1c(O)c2ccccc2oc1=O (configuration not stated)
GLP1 secretion stimulation (%): 3.5
--
compound: C/C(=C(\CCO)SS/C(CCO)=C(\C)N(C=O)Cc1cnc(C)nc1N)N(C=O)Cc1cnc(C)nc1N
GLP1 secretion stimulation (%): -0.7
--
compound: C=CCN1C(=O)C(CC(C)C)NC1=S (configuration not stated)
GLP1 secretion stimulation (%): -4
--
compound: C#C[C@]1(O)CC[C@H]2[C@@H]3CCC4=Cc5oncc5C[C@]4(C)[C@H]3CC[C@@]21C
GLP1 secretion stimulation (%): 1.4
--
compound: CCOC(=O)c1ccc(O)c(O)c1
GLP1 secretion stimulation (%): -0.3
--
compound: C[C@H](CCC(=O)O)[C@H]1CC[C@H]2[C@@H]3CC[C@@H]4C[C@H](O)CC[C@]4(C)[C@@H]3C[C@H](O)[C@]12C
GLP1 secretion stimulation (%): -5
--
compound: C/C(=C1\CCOC(=O)S1)N(C=O)Cc1cnc(C)nc1N
GLP1 secretion stimulation (%): 8.1
--
compound: CC(=O)O[C@@H]1CC2C3CCc4cc(OC(=O)c5ccccc5)ccc4C3CCC2(C)[C@H]1OC(C)=O (some centres not stated)
GLP1 secretion stimulation (%): 2.1
--
compound: CCC(=O)Nc1ccc(O)cc1
GLP1 secretion stimulation (%): 4.4
--
compound: CCCc1cc(=O)[nH]c(=S)[nH]1
GLP1 secretion stimulation (%): -0.8
--
compound: CCOC(=O)N1CCC(=C2c3ccc(Cl)cc3CCc3cccnc32)CC1
GLP1 secretion stimulation (%): 14.3
--
compound: CCc1cccc2c3c([nH]c12)C(CC)(CC(=O)O)OCC3 (configuration not stated)
GLP1 secretion stimulation (%): -0.9
--
compound: CCCCS(=O)(=O)N[C@@H](Cc1ccc(OCCCCC2CCNCC2)cc1)C(=O)O
GLP1 secretion stimulation (%): 5.3
--
compound: O=C(O)[C@@H]1CCCN1
GLP1 secretion stimulation (%): -1.7
--
compound: CCN(CC)CCOc1ccccc1C(=O)CCc1ccccc1
GLP1 secretion stimulation (%): 5.2
--
compound: CCCCCCCCCCCCOS(=O)(=O)O
GLP1 secretion stimulation (%): 15.2
--
compound: CC(C)OP(=O)(CP(=O)(OC(C)C)OC(C)C)OC(C)C
GLP1 secretion stimulation (%): -0.8
--
compound: COc1cc2nc(Cl)nc(N)c2cc1OC
GLP1 secretion stimulation (%): 0.6
--
compound: Cn1c(=O)c2[nH]c(Br)nc2n(C)c1=O
GLP1 secretion stimulation (%): 1.1
--
compound: CCCCCCCCCCCCCCCC(=O)OC(C)C
GLP1 secretion stimulation (%): -1.2
--
compound: CCn1cc(C(=O)O)c(=O)c2cc(F)c(N3CCN(C)CC3)cc21
GLP1 secretion stimulation (%): 3.5
--
compound: NCCC(=O)[N-][C@@H](Cc1cnc[nH]1)C(=O)O.[Zn]
GLP1 secretion stimulation (%): 1.7
--
compound: CC12C=CC(=O)C=C1CCC1C2C(O)CC2(C)C1CCC2(O)C(=O)COP(=O)(O)O (configuration not stated)
GLP1 secretion stimulation (%): -2
--
compound: Oc1ccccc1-c1nnco1
GLP1 secretion stimulation (%): -0.1
--
compound: CC(C=CC1=C(C)CCCC1(C)C)=CC=CC(C)=CC(=O)Oc1c(C)c(C)c2c(c1C)CC[C@@](C)(CCC[C@H](C)CCC[C@H](C)CCCC(C)C)O2
GLP1 secretion stimulation (%): 2.3
--
compound: O=C(/C=C/c1ccccc1)NCCO
GLP1 secretion stimulation (%): -1.5
--
compound: NCCNc1ccc(NCCN)c2c1C(=O)c1ccncc1C2=O
GLP1 secretion stimulation (%): -4.8
--
compound: CC1(C)CO[C@@H](CC(=O)O)CN1
GLP1 secretion stimulation (%): -0.1
--
compound: CC(N=C(NC#N)Nc1ccncc1)C(C)(C)C (configuration not stated)
GLP1 secretion stimulation (%): -3.6
--
compound: Cn1cc(C(=O)[C@@H]2CCc3nc[nH]c3C2)c2ccccc21
GLP1 secretion stimulation (%): 0.6
